system: TGF-α stimulated growth of MCF-7 cells; assay: Reversal of TGF-α stimulated growth of MCF-7 cells; assay type: cell-based; conditions: MCF-7, TGF 1 ng/ml, non-serum stimulated; reversal value; read-out: LC50 Data for Administered Drug, Non-Serum Stimulated
Measurement Kind: CC50 (µM)

{"Compound": "O=C(/C=C/c1ccccn1)C12CC3CC(CC(C3)C1)C2 [Compound 47a]", "Value Measured": 50}

###

tested on: MDA-MB435 (ER-negative) human breast cancer cell line; experiment: Dose response / cell viability (LC50) in MDA-MB435 breast cancer cells
Measurement Kind: CC50 (µM)

{"Compound": "O=C(/C=C/c1cccnc1)C12CC3CC(CC(C3)C1)C2 [Compound 47b]", "Value Measured": 5}

###

test system: normal breast epithelial cell line MCF-10; assay: Toxicity for normal breast epithelial cells; assay type: cell-based; settings: MCF-10 cells; highest concentration tested (1 mM); average values
Listed here are compounds together with their documented % cell viability.
Measurement Kind: % cell viability (%)

{"Compound": "O=C(/C=C/c1cccnc1)C12CC3CC(CC(C3)C1)C2 [Compound 47b]", "Value Measured": 124}
{"Compound": "O=C(/C=C/c1ccncc1)C12CC3CC(CC(C3)C1)C2 [Compound 47c]", "Value Measured": 102}
{"Compound": "O=C(/C=C/c1ccnc2ccccc12)C12CC3CC(CC(C3)C1)C2 [Compound 47e]", "Value Measured": 98}
{"Compound": "O=C(/C=C/c1ccccn1)C12CC3CC(CC(C3)C1)C2 [Compound 47a]", "Value Measured": 103}
{"Compound": "Cc1cccc(/C=C/C(=O)C23CC4CC(CC(C4)C2)C3)n1 [Compound 47d]", "Value Measured": 94}

###

test system: EGF stimulated growth of MCF-7 cells; format: cell-based, human; conditions: EGF-non serum stimulated growth of MCF-7 cells; read-out: IC50, reversal of stimulated growth back to control values
pIC50: −log10 of the molar value.
Measurement Kind: pIC50

{"Compound": "O=C(/C=C/c1ccccn1)C12CC3CC(CC(C3)C1)C2 [Compound 47a]", "Measured Target": "EGF stimulated growth of MCF-7 cells", "Value Measured": 4.30}
